- Test details: BSK_3C_uPAR: BioMAP Diversity Plus: 3C Assay for Urokinase-type plasminogen activator receptor (uPAR) Biomarker Activity (AID 2282998)
- Condition details: BioMAP 3C HUVEC, uPAR biomarker ELISA; actives raise or lower the signal
The source made the active and inactive calls. The calls were made as follows: active = hit-call score of the fitted dose curve at least 0.9, where 1 is the maximum; inactive = score below 0.9.
// classify into true (active), false (inactive)

Which outcome did this test record for the compound `Cc1ccc2n[nH]nc2c1` ? false

Which outcome did this test record for the compound `Cc1ccc(O)c(C(C)(C)C)c1` ? true

Which outcome did this test record for the compound `C=CCOC(=O)CCC1CCCCC1` ? false

Which outcome did this test record for the compound `CNC[C@H](O)c1cccc(O)c1` ? false

Which outcome did this test record for the compound OC1OC[C@@H](O)[C@H](O)[C@H]1O (stereo partly drawn) ? false

Which outcome did this test record for the compound `CC(=O)/C=C/C1=C(C)CCCC1(C)C` ? false

Which outcome did this test record for the compound `Nc1cc([N+](=O)[O-])ccc1O` ? false

Which outcome did this test record for the compound `NCCNCCN` ? false

Which outcome did this test record for the compound `Cc1cc(C2(c3cc(C)c(O)cc3C)OS(=O)(=O)c3ccccc32)c(C)cc1O` ? false

Which outcome did this test record for the compound `N#Cc1ccc(CC(=NNC(=O)Nc2ccc(OC(F)(F)F)cc2)c2cccc(C(F)(F)F)c2)cc1` ? false

Which outcome did this test record for the compound `CC(=O)O[C@]1(C(C)=O)CC[C@H]2[C@@H]3C[C@H](C)C4=CC(=O)CC[C@]4(C)[C@H]3CC[C@@]21C` ? false

Which outcome did this test record for the compound BrC1CCC(Br)C(Br)CCC(Br)C(Br)CCC1Br (stereo not drawn) ? true

Which outcome did this test record for the compound `O=[N+]([O-])c1cc(C(F)(F)F)ccc1Cl` ? false

----------
- Test details: ATG_Ets_CIS: Attagene CIS-FACTORIAL HepG2 Assay for human Erythroblast Transformation Specific (ETS) (AID 2282941)
- Condition details: HepG2 ETS cis-reporter transcription, actives raise or lower the signal
Active and inactive are the calls of the source. Rule for the calls: active = hit-call score of the fitted dose curve at least 0.9, where 1 is the maximum; inactive = score below 0.9.
// classify into active, inactive

Which outcome did this test record for the compound CN(CCOc1ccc(CC2SC(=O)NC2=O)cc1)c1ccccn1 (configuration not stated) ? inactive

Which outcome did this test record for the compound C=CC(C)(O)CCC=C(C)CCC=C(C)C (configuration not stated) ? active

Which outcome did this test record for the compound `O=C1O[C@@H]2[C@@H](O)[C@H](O)O[C@@H]2[C@H]1O` ? inactive

Which outcome did this test record for the compound `CC(C)[C@H]1CC[C@@H](C)CC1=O` ? inactive

Which outcome did this test record for the compound `O=C(O)c1ccc(C(=O)O)cc1` ? inactive

Which outcome did this test record for the compound `CC(=O)/C=C/C1=C(C)CCCC1(C)C` ? inactive

Which outcome did this test record for the compound `CC(=O)Nc1ccccc1O` ? inactive

Which outcome did this test record for the compound `CC1(C)[C@@H]2CC[C@@]1(C)[C@H](O)C2` ? inactive

Which outcome did this test record for the compound `CCCCCOC(=O)CCC` ? inactive

Which outcome did this test record for the compound `OCC(CO)(CO)COCC(CO)(CO)CO` ? inactive

Which outcome did this test record for the compound `CCC(=O)OCc1ccccc1` ? inactive

Which outcome did this test record for the compound `CCCCCCCCCCCCCOS(=O)(=O)O` ? inactive

Which outcome did this test record for the compound COC(=O)C1=C(C)NC(C)=C(C(=O)OCCN(C)Cc2ccccc2)C1c1cccc([N+](=O)[O-])c1 (configuration not stated) ? inactive

Which outcome did this test record for the compound `Clc1ccc(Cl)c(Cl)c1Cl` ? inactive

Which outcome did this test record for the compound `Clc1sc(Cl)c(Cl)c1Cl` ? inactive

Which outcome did this test record for the compound `CC(C)(C)c1n[nH]c(=S)n(N)c1=O` ? inactive

Which outcome did this test record for the compound `Fc1c(F)c(F)c(Br)c(F)c1F` ? inactive

Which outcome did this test record for the compound `CC(C)(N)CO` ? inactive

Which outcome did this test record for the compound `O=C(O)CCSCCC(=O)O` ? inactive

Which outcome did this test record for the compound `C[C@H]1C[C@@H]2[C@H]([C@@H](O)C[C@@]3(C)[C@H]2CC[C@]3(O)C(=O)CO)[C@@]2(C)C=CC(=O)C=C12` ? inactive

Which outcome did this test record for the compound `CC(=O)C=CC1=C(C)CCCC1(C)C` ? inactive

Which outcome did this test record for the compound `OCCCCCO` ? inactive

Which outcome did this test record for the compound `O=Cc1ccc(Cl)c([N+](=O)[O-])c1` ? active

Which outcome did this test record for the compound `O=[N+]([O-])c1ccc(C=Cc2ccc([N+](=O)[O-])cc2S(=O)(=O)O)c(S(=O)(=O)O)c1` ? inactive

Which outcome did this test record for the compound `Cc1ccc(C=O)cc1` ? inactive

Which outcome did this test record for the compound `COc1cc2ncnc(Nc3cccc(Cl)c3)c2cc1OC` ? inactive

Which outcome did this test record for the compound `Cc1c(Cl)c(=O)oc2cc(O)ccc12` ? inactive

Which outcome did this test record for the compound `O=C[C@H](O)[C@H](O)[C@H](O)CO` ? inactive

Which outcome did this test record for the compound `CC(C)(C#N)c1cc(Cn2cncn2)cc(C(C)(C)C#N)c1` ? inactive

Which outcome did this test record for the compound `CCCC[n+]1ccccc1` ? inactive

Which outcome did this test record for the compound `CNCCO` ? inactive

Which outcome did this test record for the compound `Cc1ccc(C=O)s1` ? inactive

Which outcome did this test record for the compound `COC(=O)OC` ? inactive

Which outcome did this test record for the compound CC1=CCC2C(C1)C2(C)C (configuration not stated) ? inactive

Which outcome did this test record for the compound `COc1c(Cl)c(Cl)c(Cl)c(Cl)c1Cl` ? inactive

Which outcome did this test record for the compound `C=CC(=O)NCOCC(C)C` ? inactive

Which outcome did this test record for the compound `COc1cc(C=O)ccc1OC(=O)C(C)C` ? inactive

Which outcome did this test record for the compound `OCCN1CCNCC1` ? inactive

Which outcome did this test record for the compound `O=c1oc(=O)c2cc3c(=O)oc(=O)c3cc12` ? inactive

Which outcome did this test record for the compound `CC(C)(C)c1cc(CCC(=O)NN)cc(C(C)(C)C)c1O` ? inactive

Which outcome did this test record for the compound `NCCNCCN` ? inactive

Which outcome did this test record for the compound `CNC(=O)Oc1ccc2c(c1)[C@]1(C)CCN(C)[C@@H]1N2C` ? inactive

Which outcome did this test record for the compound `O=S(=O)(O)c1ccc(O)c2ncccc12` ? inactive

Which outcome did this test record for the compound CC1=CCC(O)(C(C)C)CC1 (configuration not stated) ? inactive

Which outcome did this test record for the compound `CC(=O)[C@H]1CC[C@H]2[C@@H]3CC=C4C[C@@H](O)CC[C@]4(C)[C@H]3CC[C@]12C` ? inactive

Which outcome did this test record for the compound `CC(C)=CCO` ? inactive

Which outcome did this test record for the compound C=CC(C)(CCC=C(C)C)OC=O (configuration not stated) ? inactive

Which outcome did this test record for the compound `CCCCCCCCCCCCCCCC(=O)OC[C@H](O)[C@H]1OC(=O)C(O)=C1O` ? inactive

Which outcome did this test record for the compound CC1CCC2CC1C2(C)C (configuration not stated) ? inactive

Which outcome did this test record for the compound `CO[Si](CCCn1c(=O)n(CCC[Si](OC)(OC)OC)c(=O)n(CCC[Si](OC)(OC)OC)c1=O)(OC)OC` ? inactive

Which outcome did this test record for the compound `O=C[C@@H](O)[C@H](O)[C@H](O)CO` ? inactive

Which outcome did this test record for the compound `C=C(C)C(=O)OCc1ccccc1` ? inactive

Which outcome did this test record for the compound `CC1(C)CCC(C)(C)c2cc(C(=O)Nc3ccc(C(=O)O)cc3)ccc21` ? inactive

Which outcome did this test record for the compound `CC(=O)O[C@H](CC(=O)[O-])C[N+](C)(C)C` ? inactive

Which outcome did this test record for the compound `C=C(C)C(=O)Nc1ccc(Cl)c(Cl)c1` ? inactive

Which outcome did this test record for the compound `CCCCO` ? inactive

Which outcome did this test record for the compound `CCCCCC(=O)OCCc1ccccc1` ? inactive

----------
- Test details: ATG_ERE_CIS: Attagene CIS-FACTORIAL HepG2 Assay for Estrogen Response Element (ERE) (AID 2282940)
- Condition details: HepG2 ERE cis-reporter, Attagene RNA transcript; actives raise or lower the signal
- Description: ATG_CIS is a cell-based, multiplexed-readout assay that uses HepG2, a human liver cell line, with measurements taken at 24 hours after chemical dosing in a 24-well plate.ATG_ERE_CIS is one of 52 assay component(s) measured or calculated from the ATG_CIS assay. […] This assay endpoint, ATG_ERE_CIS, was analyzed with bidirectional fitting relative to DMSO as the negative control and baseline of activity. […]
Calls of active or inactive are those of the source. Rule for the calls: active = hit-call score of the fitted dose curve at least 0.9, where 1 is the maximum; inactive = score below 0.9.
// classify into active, inactive

Which outcome did this test record for the compound `CC(=O)OCCOC(C)=O` ? inactive

Which outcome did this test record for the compound `CC(=O)[C@H]1CC[C@H]2[C@@H]3CC=C4C[C@@H](O)CC[C@]4(C)[C@H]3CC[C@]12C` ? active

Which outcome did this test record for the compound OC1C(O)C(O)C(O)C(O)C1O (configuration not stated) ? inactive

Which outcome did this test record for the compound `CC(=O)/C=C/C1=C(C)CCCC1(C)C` ? inactive

Which outcome did this test record for the compound `CO[Si](C)(OC)c1ccccc1` ? inactive

Which outcome did this test record for the compound `C=CC(C)(C)O` ? inactive

Which outcome did this test record for the compound `Cc1cc(C2(c3cc(C)c(O)cc3C)OS(=O)(=O)c3ccccc32)c(C)cc1O` ? active

Which outcome did this test record for the compound CC(=O)OCCC(C)CC(C)(C)C (configuration not stated) ? inactive

Which outcome did this test record for the compound `CC(=O)Nc1ccc(CC(=O)O)cc1` ? inactive

Which outcome did this test record for the compound `O=[N+]([O-])c1ccc(C=Cc2ccc([N+](=O)[O-])cc2S(=O)(=O)O)c(S(=O)(=O)O)c1` ? active

Which outcome did this test record for the compound `Cc1ccc(C=O)cc1` ? inactive

Which outcome did this test record for the compound `C[C@]12CC[C@H]3[C@@H](CCC4=CC(=O)CC[C@@]43C)[C@@H]1CC[C@@H]2C(=O)CO` ? active
